A short record of MBC (µM) P. aeruginosa 01 observed with P. aeruginosa 01 follows.
Square brackets hold non-standard residues; d marks the D form. Peptide text beside a SMILES is read from it.

compound	units-label	MBC (µM) P. aeruginosa 01
CC[C@@H](C)[C@@H](N)C(=O)N[C@@H](CC(C)C)C(=O)N[C@@H](CCCCN)C(=O)N[C@@H](C)C(=O)N[C@H](C(=O)N[C@@H](CCCCN)C(=O)N[C@@H](CCCCN)C(=O)N[C@@H](CC(C)C)C(=O)N[C@@H](CC(C)C)C(=O)N[C@H](CCCCN)C(N)=O)[C@@H](C)CC [i1k10*] (H-[dI]LKAIKKLL[dK]-NH2)	µM	12.5
CC[C@@H](C)[C@@H](N)C(=O)N[C@@H](CC(C)C)C(=O)N[C@@H](CCCCN)C(=O)N[C@@H](C)C(=O)N[C@H](C(=O)N[C@@H](CCCCN)C(=O)N[C@@H](CCCCN)C(=O)N[C@@H](CC(C)C)C(=O)N[C@@H](CC(C)C)C(=O)N[C@@H](CCCCN)C(=O)N[C@H](CC(N)=O)C(N)=O)[C@@H](C)CC [LTX-gallicune-1(i1D-n11D)] (H-[dI]LKAIKKLLK[dN]-NH2)	µM	12.5
CC[C@@H](C)[C@@H](N)C(=O)N[C@H](CC(C)C)C(=O)N[C@H](CCCCN)C(=O)N[C@H](C)C(=O)N[C@@H](C(=O)N[C@H](CCCCN)C(=O)N[C@H](CCCCN)C(=O)N[C@H](CC(C)C)C(=O)N[C@H](CC(C)C)C(=O)N[C@H](CCCCN)C(=O)N[C@H](CC(N)=O)C(N)=O)[C@H](C)CC [LTX-D (gallicune-1), ilkaikkllkn] (H-[dI][dL][dK][dA][dI][dK][dK][dL][dL][dK][dN]-NH2)	µM	25
CC[C@@H](C)[C@@H](N)C(=O)N[C@H](CC(C)C)C(=O)N[C@H](CCCCN)C(=O)N[C@H](C)C(=O)N[C@@H](C(=O)N[C@H](CCCCN)C(=O)N[C@H](CCCCN)C(=O)N[C@H](CC(C)C)C(=O)N[C@H](CC(C)C)C(=O)N[C@H](CCCCN)C(N)=O)[C@H](C)CC [(i1k10*) enantio, ilkaikkllk] (H-[dI][dL][dK][dA][dI][dK][dK][dL][dL][dK]-NH2)	µM	50
